Target: T1, MICA002.His (human MICA*002 alpha 3 domain, His tagged) (human)
T1 construct: also called huMICA*002 alpha 3-his
T1 chain: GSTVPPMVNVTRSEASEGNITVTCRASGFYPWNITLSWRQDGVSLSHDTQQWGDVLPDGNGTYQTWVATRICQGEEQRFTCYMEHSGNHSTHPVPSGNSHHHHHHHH
Test: SPR, antibody captured;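 also: SPR with antibody held by surface-bound anti-Fc while His-tagged alpha three domains flow over, Kd derived by fitting a one-to-one binding model to sensograms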
reported endpoint: pKd
On this scale, pKd is minus log10 of a concentration expressed in M (mol/L).

Query string: I'd like to know its pKd. The binder in question is 13A9 (antibody, V domains shown, Mouse variable domains; constant regions differ by assay) VH: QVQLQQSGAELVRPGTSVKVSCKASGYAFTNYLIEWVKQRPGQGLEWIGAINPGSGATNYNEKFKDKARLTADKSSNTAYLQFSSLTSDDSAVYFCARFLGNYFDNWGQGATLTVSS VL: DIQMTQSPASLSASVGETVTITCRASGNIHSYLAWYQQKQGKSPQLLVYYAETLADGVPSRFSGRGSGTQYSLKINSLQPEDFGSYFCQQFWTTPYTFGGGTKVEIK
Result string: 9.30

Sourced from patent US20200055939A1
